All values here come from patent US20080262040A1.

target: Recombinant human IKKβ (residues 1-737) (IKK2) (Homo sapiens, UniProt O14920); construct: Recombinant human IKKβ (residues 1-737) was expressed in baculovirus; GST (C); made in house; assay: IKK2 TR-FRET assay; format: biochemical; conditions: IKK2 5 nM, GST-IκBα 25 nM, ATP 1 μM, 30 minutes at room temperature, read-out: pIC50 against IKK2 (converted)
Sequence (O14920 1-737): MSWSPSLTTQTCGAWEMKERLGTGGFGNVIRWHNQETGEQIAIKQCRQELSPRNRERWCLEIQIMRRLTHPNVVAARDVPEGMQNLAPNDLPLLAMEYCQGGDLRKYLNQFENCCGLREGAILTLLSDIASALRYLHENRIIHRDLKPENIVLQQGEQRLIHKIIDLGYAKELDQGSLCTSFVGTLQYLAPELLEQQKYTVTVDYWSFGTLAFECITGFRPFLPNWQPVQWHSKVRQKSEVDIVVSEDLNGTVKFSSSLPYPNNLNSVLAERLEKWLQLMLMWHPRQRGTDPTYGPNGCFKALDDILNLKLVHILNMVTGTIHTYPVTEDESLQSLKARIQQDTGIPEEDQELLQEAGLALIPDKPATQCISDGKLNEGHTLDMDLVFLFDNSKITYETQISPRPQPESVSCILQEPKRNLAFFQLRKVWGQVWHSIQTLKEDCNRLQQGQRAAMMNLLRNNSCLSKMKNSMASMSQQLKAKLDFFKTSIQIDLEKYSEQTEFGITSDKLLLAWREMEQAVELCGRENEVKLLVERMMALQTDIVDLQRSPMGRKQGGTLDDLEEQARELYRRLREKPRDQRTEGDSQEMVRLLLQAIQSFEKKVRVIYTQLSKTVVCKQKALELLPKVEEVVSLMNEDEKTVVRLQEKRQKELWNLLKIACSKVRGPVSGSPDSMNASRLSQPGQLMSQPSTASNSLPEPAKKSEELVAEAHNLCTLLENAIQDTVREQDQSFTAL
MEASURE NAME: IC50

Some compounds with recorded IC50:
* NC(=O)c1cc(-c2ccccc2)cc2c1cnn2C1CCCN(C(=O)c2ccccc2)C1 (stereo not shown) | > 15.8 µM
* CC(C)(C)OC(=O)N1CCCC(n2ncc3c(C(N)=O)cc(-c4ccccc4)cc32)C1 (stereo not shown) | ≤ 10 µM
* CC(C)(C)OC(=O)N1CCC(n2ncc3c(C(N)=O)cc(-c4ccccc4)cc32)CC1 | ≤ 10 µM

// query IC50 value for entry "Cn1cnc(S(=O)(=O)N2CCC(n3ncc4c(C(N)=O)cc(-c5ccccc5)cc43)CC2)c1"
≤ 10 µM
